Target: T1, extracellular domain of rhesus monkey BCMA (rhesus monkey, UniProt F7FFA0 1-53)
T1 construct: extracellular domain; also called RhBCMA
T1 sequence (F7FFA0 entry or part of it): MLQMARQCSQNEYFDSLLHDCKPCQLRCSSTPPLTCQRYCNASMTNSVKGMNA
Assay: Octet BLI; Fab 200 nM
metric: pKd
Kindly note that pKd refers to -log10 of the concentration in mol/L and answer with the value alone.

Which measured pKd value corresponds to AB200-R1a-Fab_Vk21 (Fab, V domains shown) VH: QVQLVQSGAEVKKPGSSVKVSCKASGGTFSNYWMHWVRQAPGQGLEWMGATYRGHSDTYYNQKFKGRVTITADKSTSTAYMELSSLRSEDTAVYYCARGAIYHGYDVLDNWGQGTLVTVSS VL: DIQMTQSPSSLSASVGDRVTITCSASQDISNYLNWYQQKPGKAPKLLIYYTSNLHSGVPSRFSGSGSGTDFTLTISSLQPEDFATYYCHQYKKTPWTFGQGTKLEIKR ?
7.21

Which measured pKd value corresponds to AB200-R1a-Fab_Vk1 (Fab, V domains shown) VH: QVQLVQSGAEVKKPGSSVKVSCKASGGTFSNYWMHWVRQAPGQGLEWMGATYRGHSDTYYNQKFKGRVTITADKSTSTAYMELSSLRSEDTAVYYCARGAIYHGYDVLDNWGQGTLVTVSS VL: DIQMTQSPSSLSASVGDRVTITCRASQDISSYLNWYQQKPGKAPKLLIYYTSNIHSGVPSRFSGSGSGTDFTLTISSLQPEDFATYYCQQYRKLPWTFGQGTKLEIKR ?
8.20
